Reported IC50 values for a set of compounds
measuredTarget: recombinant human Mcl-1 (Homo sapiens, UniProt Q07820)
Construct: C-terminally 6×His tagged Mcl-1 containing residues 171-327
Sequence (Q07820 171-327): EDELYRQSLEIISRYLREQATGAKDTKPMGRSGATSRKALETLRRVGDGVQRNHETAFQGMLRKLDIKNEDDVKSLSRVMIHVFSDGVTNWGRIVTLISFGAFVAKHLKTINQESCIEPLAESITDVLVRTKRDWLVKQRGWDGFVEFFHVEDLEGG
assayProcedure: Cell free Mcl-1:Bim affinity assay (Mcl-1 HTRF, TR-FRET)
conditionParameters: inhibition of Mcl-1/Bim interaction
# value in nM; strip the unit string

Example entries begin here.
[
  {
    "compound": "COCCO[C@H]1/C=C/C[C@@H](C)CS(=O)(=O)NC(=O)c2ccc3c(c2)N(C[C@@H]2CC[C@H]21)C[C@@]1(CCCc2cc(Cl)ccc21)CO3 (single isomer, unassigned) [Example 77]",
    "IC50, nM": 6.12
  },
  {
    "compound": "C[C@H]1C/C=C/[C@H](O)[C@@H]2CC[C@H]2CN2C[C@@]3(CCCc4cc(Cl)ccc43)COc3ccc(cc32)C(=O)NS(=O)(=O)[C@@H]1C1CCC1 (single isomer, unassigned) [Example 57]",
    "IC50, nM": 2.15
  },
  {
    "compound": "CC(C)C[C@@H]1[C@@H](C)C/C=C/[C@H](O)[C@@H]2CC[C@H]2CN2C[C@@]3(CCCc4cc(Cl)ccc43)COc3ccc(cc32)C(=O)NS1(=O)=O (single isomer, unassigned) [Example 66]",
    "IC50, nM": 2.12
  },
  {
    "compound": "C[C@@H]1CCC[C@H](O)[C@@H]2CC[C@H]2CN2C[C@@]3(CCCc4cc(Cl)ccc43)COc3ccc(cc32)C(=O)NS(=O)(=O)C1 (single isomer, unassigned) [Example 39]",
    "IC50, nM": 10.7
  }
]

The measured IC50 associated with C[C@@H]1CCC[C@H](O)[C@@H]2CC[C@H]2CN2C[C@@]3(CCCc4cc(Cl)ccc43)COc3ccc(cc32)C(=O)NS(=O)(=O)[C@H]1C (single isomer, unassigned) [Example 36] reads 44.5

The measured IC50 associated with CC(C)C[C@@H]1[C@@H](C)C/C=C/[C@H](O)[C@@H]2CC[C@H]2CN2C[C@@]3(CCCc4cc(Cl)ccc43)COc3ccc(cc32)C(=O)NS1(=O)=O (single isomer, unassigned) [Example 67] reads 1.08

The measured IC50 associated with CC(C)[C@@H]1[C@H](C)C/C=C/[C@H](O)[C@@H]2CC[C@H]2CN2C[C@@]3(CCCc4cc(Cl)ccc43)COc3ccc(cc32)C(=O)NS1(=O)=O (single isomer, unassigned) [Example 52] reads 0.882

The measured IC50 associated with C[C@H]1C/C=C/[C@H](O)[C@@H]2CC[C@H]2CN2C[C@@]3(CCCc4cc(Cl)ccc43)COc3ccc(cc32)C(=O)NS(=O)(=O)[C@@H]1C1CC1 (single isomer, unassigned) [Example 45] reads 5.5

The measured IC50 associated with CO[C@H]1/C=C/C[C@@H](C)[C@@H](C(C)C)S(=O)(=O)NC(=O)c2ccc3c(c2)N(C[C@@H]2CC[C@H]21)C[C@@]1(CCCc2cc(Cl)ccc21)CO3 [Example 53] reads 1.39

The measured IC50 associated with C[C@@H]1C/C=C/[C@H](O)[C@@H]2CC[C@H]2CN2C[C@@]3(CCCc4cc(Cl)ccc43)COc3ccc(cc32)C(=O)NS(=O)(=O)C1 (single isomer, unassigned) [Example 30] reads 0.38
